# METHOD_DESCRIPTION: PAMPA-BBB permeability assay
# Type: in vitro ADME, porcine
# MEASUREMENT_CONTEXT: pig, PAMPA; pH 7.4, 37 °C, 4 h, n = 9; Pe in cm/s; read-out: logPe PAMPA-BBB (n = 9) (converted)
Each entry below carries its reported Papp at 4 h, 100 µM.
RECORDED_ENDPOINT: Papp at 4 h, 100 µM (nm/s)

cpd_smiles=CC[C@H]1CN2CCc3c([nH]c4cccc(OC)c34)[C@@H]2C[C@@H]1/C(=C\OC)C(=O)OC observed_value=170
cpd_smiles=CC[C@@H]1CN2CCc3c([nH]c4cccc(OC)c34)[C@H]2C[C@@H]1/C(=C\OC)C(=O)OC observed_value=263
cpd_smiles=C=C[C@H]1CN2CCc3c([nH]c4cccc(OC)c34)[C@@H]2C[C@@H]1/C(=C\OC)C(=O)OC observed_value=245
